# PROTOCOL DESCRIPTION: Acute toxicity in mice
# TEST PARAMETERS: mouse, in vivo, sc; subcutaneous, male mice (4 weeks old)
MEASURED QUANTITY: LD50

Please list LD50 recorded for the compound O=Cc1cc(C(=O)O)cc(O)c1C(=O)c1c(O)cccc1O [Compound 1] ≥ 800 mg/kg

====

# TARGET ENTITY: UniProtKB P11511
# Sequence (P11511 1-503): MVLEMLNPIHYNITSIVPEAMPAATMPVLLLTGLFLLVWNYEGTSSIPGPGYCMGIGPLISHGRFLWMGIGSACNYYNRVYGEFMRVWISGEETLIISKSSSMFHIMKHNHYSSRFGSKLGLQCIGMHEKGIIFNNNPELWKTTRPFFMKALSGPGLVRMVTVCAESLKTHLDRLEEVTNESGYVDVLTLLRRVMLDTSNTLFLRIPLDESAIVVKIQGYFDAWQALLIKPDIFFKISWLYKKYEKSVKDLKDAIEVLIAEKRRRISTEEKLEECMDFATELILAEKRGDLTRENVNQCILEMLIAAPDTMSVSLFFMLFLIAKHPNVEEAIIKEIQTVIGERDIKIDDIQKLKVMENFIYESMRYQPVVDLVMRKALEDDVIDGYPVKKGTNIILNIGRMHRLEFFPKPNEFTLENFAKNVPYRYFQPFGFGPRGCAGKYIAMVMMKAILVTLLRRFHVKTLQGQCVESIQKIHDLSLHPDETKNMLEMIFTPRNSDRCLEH
# maps each entry to its pIC50
Interpret pIC50 as the negative base-10 log of the concentration measured in mol/L.

STRUCTURE AS SMILES	pIC50
CC(C)NC(=O)c1cc(O)c(C(=O)c2c(O)cccc2O)c(C=O)c1	4.59
CCCCCCOC(=O)c1cc(O)c(C(=O)c2c(O)cccc2O)c(C=O)c1	4.49
CN(C)C(=O)c1cc(O)c(C(=O)c2c(O)cccc2O)c(C=O)c1	4.84
O=Cc1cc(C(=O)O)cc(O)c1C(=O)c1c(O)cccc1O	4.76
COc1cccc(O)c1C(=O)c1c(C=O)cc(C(=O)O)cc1OC	4.02

Please list pIC50 recorded for the compound O=Cc1cc(C(=O)N2CCOCC2)cc(O)c1C(=O)c1c(O)cccc1O 4.78

Please list pIC50 recorded for the compound Cc1ccc(NC(=O)c2cc(O)c(C(=O)c3c(O)cccc3O)c(C=O)c2)cc1 4.79
